- STUDY TARGET: Muscarinic acetylcholine receptor M2 (Homo sapiens, UniProt P08172); also: assay procedure not described here
- Sequence (P08172 whole entry): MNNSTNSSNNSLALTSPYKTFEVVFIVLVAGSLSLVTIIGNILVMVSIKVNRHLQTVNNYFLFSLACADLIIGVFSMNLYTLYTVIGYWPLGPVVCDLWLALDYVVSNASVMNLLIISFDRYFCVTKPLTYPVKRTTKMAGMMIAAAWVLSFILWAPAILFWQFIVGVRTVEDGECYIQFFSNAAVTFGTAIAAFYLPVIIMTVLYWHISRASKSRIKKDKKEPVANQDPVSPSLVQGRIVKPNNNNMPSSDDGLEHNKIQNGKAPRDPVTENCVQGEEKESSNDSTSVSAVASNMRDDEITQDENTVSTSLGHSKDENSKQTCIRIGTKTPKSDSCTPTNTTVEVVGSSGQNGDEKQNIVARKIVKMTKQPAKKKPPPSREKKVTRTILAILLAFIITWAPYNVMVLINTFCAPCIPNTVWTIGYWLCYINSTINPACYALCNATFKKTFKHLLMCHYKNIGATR
- Assay type: functional, cell-based
# AC50 annotations

Answered cases to consult:
IN: For CO[C@H]1C[C@@H]2CC[C@@H](C)[C@@](O)(O2)C(=O)C(=O)N2CCCC[C@H]2C(=O)O[C@H]([C@H](C)C[C@@H]2CC[C@@H](O)[C@H](OC)C2)CC(=O)[C@H](C)/C=C(\C)[C@@H](O)[C@@H](OC)C(=O)[C@H](C)C[C@H](C)/C=C/C=C/C=C/1C [SIROLIMUS] , what is its reported AC50?
OUT: > 10 µM

IN: For Cc1ccc(S(=O)(=O)NC(=O)NN2CC3CCCC3C2)cc1 (stereo unspecified) [GLICLAZIDE] , what is its reported AC50?
OUT: > 10 µM

IN: For COc1ccc(CCNCC(O)COc2cccc(C)c2)cc1OC (stereo unspecified) [BEVANTOLOL] , what is its reported AC50?
OUT: > 10 µM

Continuing:
IN: For CCCN(CCC)C(=O)C(CCC(=O)O)NC(=O)c1ccccc1 (stereo unspecified) [PROGLUMIDE] , what is its reported AC50?
OUT: > 10 µM

IN: For COc1ccc(CCN(C)CCCC(C#N)(c2cc(OC)c(OC)c(OC)c2)C(C)C)cc1OC (stereo unspecified) [GALLOPAMIL] , what is its reported AC50?
OUT: > 30 µM

IN: For CC(C)(C)NCC(O)COc1cccc2c1CCC(=O)N2 (stereo unspecified) [CARTEOLOL] , what is its reported AC50?
OUT: > 10 µM

IN: For COc1ccc(C(=O)Nc2ccccc2CCC2CCCCN2C)cc1 (stereo unspecified) [ENCAINIDE] , what is its reported AC50?
OUT: > 10 µM

IN: For O=C(O)[C@H](CC(=O)N1C[C@H]2CCCC[C@H]2C1)Cc1ccccc1 [MITIGLINIDE] , what is its reported AC50?
OUT: > 10 µM

IN: For O=C(O)C[C@H](O)C[C@H](O)/C=C/c1c(C2CC2)nc2ccccc2c1-c1ccc(F)cc1 [PITAVASTATIN] , what is its reported AC50?
OUT: > 30 µM

IN: For O=C(O)CCCCCCCC(=O)O [AZELAIC ACID] , what is its reported AC50?
OUT: > 10 µM

IN: For C=CCC1(C(C)CC)C(=O)NC(=O)NC1=O (stereo unspecified) [TALBUTAL] , what is its reported AC50?
OUT: > 10 µM

###

- STUDY TARGET: Glutamate receptor ionotropic, NMDA 1 (Rattus norvegicus, UniProt P35439); also: assay procedure not described here
# AC50 annotations

Answered cases to consult:
IN: Reported AC50 for Glutamate receptor ionotropic, NMDA 1 (Rattus norvegicus, UniProt P35439), given O=C(O)C1=C(CSc2nnnn2CS(=O)(=O)O)CS[C@@H]2[C@H](NC(=O)[C@H](O)c3ccccc3)C(=O)N12 [CEFONICID] ?
OUT: > 30 µM

IN: Reported AC50 for Glutamate receptor ionotropic, NMDA 1 (Rattus norvegicus, UniProt P35439), given Fc1ccc(C(c2ccccc2)(c2ccccc2F)n2ccnc2)cc1 (stereo not drawn) [FLUTRIMAZOLE] ?
OUT: > 30 µM

IN: Reported AC50 for Glutamate receptor ionotropic, NMDA 1 (Rattus norvegicus, UniProt P35439), given CCOC(=O)OC(C)OC1=C(C(=O)Nc2ccccn2)N(C)S(=O)(=O)c2ccccc21 (stereo not drawn) [AMPIROXICAM] ?
OUT: > 30 µM

IN: Reported AC50 for Glutamate receptor ionotropic, NMDA 1 (Rattus norvegicus, UniProt P35439), given Cn1c(=O)c2c(ncn2CC2OCCO2)n(C)c1=O [DOXOFYLLINE] ?
OUT: > 30 µM

IN: Reported AC50 for Glutamate receptor ionotropic, NMDA 1 (Rattus norvegicus, UniProt P35439), given `COc1ccc(-c2ccc3cc(C(=O)O)ccc3c2)cc1C12CC3CC(CC(C3)C1)C2` ?
OUT: > 30 µM

IN: Reported AC50 for Glutamate receptor ionotropic, NMDA 1 (Rattus norvegicus, UniProt P35439), given CCCCCNC(=N)N/N=C/c1c[nH]c2ccc(OC)cc12 [TEGASEROD] ?
OUT: 16 µM

IN: Reported AC50 for Glutamate receptor ionotropic, NMDA 1 (Rattus norvegicus, UniProt P35439), given O=C(O[C@H]1C[C@H]2CC[C@@H](C1)[N+]21CCCC1)C(O)(c1ccccc1)c1ccccc1 [TROSPIUM] ?
OUT: > 30 µM

Continuing:
IN: Reported AC50 for Glutamate receptor ionotropic, NMDA 1 (Rattus norvegicus, UniProt P35439), given Cc1c(C(=O)NN2CCCCC2)nn(-c2ccc(Cl)cc2Cl)c1-c1ccc(Cl)cc1 [RIMONABANT] ?
OUT: > 10 µM
